Assay info: cell viability in Huh7 cells, primary screen, cytotoxicity control for HCV replication inhibitor project, CellTiter-Glo luminescence, basal, 48 h (AID 1143);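 also: Huh7 hepatoma cells carrying a hepatitis C replication reporter with no stimulus; test concentration not given here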
Condition label: Huh7 HCV replicon, higher = more signal, called active from +8 up or from −8 down
Label rule, in plain words: z-score of -3 and up is fulfilled, under -3 is not fulfilled.

[[record]]
compound = "C[C@@H]1ON(c2ccc(I)cc2)[C@H](c2ccc(OC(=O)OC(C)(C)C)cc2)[C@H]1C(=O)N1C(=O)OC[C@H]1Cc1ccccc1"
label = "fulfilled"

[[record]]
compound = "CN1C(=O)C2C=CC(C(O)c3ccc(F)cc3)N(NC(=O)OC(C)(C)C)C2C1=O (stereo not given)"
label = "fulfilled"

[[record]]
compound = "C=C[C@@H](C)[C@@H](OC(=O)Nc1ccc(SC)cc1)c1ccc(OCCO)cc1"
label = "not fulfilled"


For the next question, use this compound.
Check if z-score >= -3 (inclusive). Item: CCCC=C(CCC)[C@@H](NC(=O)CCc1ccccc1)c1ccc(C(F)(F)F)cc1
fulfilled

###

Target under test: E3 ubiquitin-protein ligase XIAP (Homo sapiens) (UniProt P98170)
Sequence (P98170 whole entry, looked up): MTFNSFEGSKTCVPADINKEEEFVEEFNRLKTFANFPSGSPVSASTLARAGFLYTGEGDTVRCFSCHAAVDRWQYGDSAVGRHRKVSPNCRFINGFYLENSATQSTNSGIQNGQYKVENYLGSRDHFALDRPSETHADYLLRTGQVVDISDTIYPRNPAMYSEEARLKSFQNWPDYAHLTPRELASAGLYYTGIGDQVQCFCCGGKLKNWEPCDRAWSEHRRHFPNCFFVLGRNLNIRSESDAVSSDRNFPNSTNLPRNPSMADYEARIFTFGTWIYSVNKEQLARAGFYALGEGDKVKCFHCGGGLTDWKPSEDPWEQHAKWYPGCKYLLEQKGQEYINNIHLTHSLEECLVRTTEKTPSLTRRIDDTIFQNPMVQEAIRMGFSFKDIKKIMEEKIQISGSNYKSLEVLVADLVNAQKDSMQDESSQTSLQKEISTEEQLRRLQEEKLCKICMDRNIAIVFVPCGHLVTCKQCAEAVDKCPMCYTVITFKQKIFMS
Assay info: XIAP binders, primary screen, biophysical, small-molecule microarray, fluorescence 635 nm (AID 1181);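 also: score merges 667 nm emission and signal to noise over triplicate slides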
Condition label: small-molecule microarray binding, higher = more signal
Below, each entry is listed alongside its reported composite z-score.
Just the number, please, no unit after it.

Below: 3 molecules and their reported composite z-score.
[[record]]
molecule = "O=C1[C@@]23C=C(Br)[C@H](C[C@@H]2COC3)[C@@]12CO2"
test_readout = "composite z-score"
recorded_number = -0.102

[[record]]
molecule = "C=C(C(=O)CC[C@H](OC(=O)c1ccccc1-c1ccccc1C(=O)O)c1ccccc1OCCO)C(C)C"
test_readout = "composite z-score"
recorded_number = 0.194

[[record]]
molecule = "CN(C)C(=O)[C@@]1(Cc2ccccc2N=[N+]=[N-])N=C(c2ccc(OCCCO)cc2)O[C@H]1c1ccccc1"
test_readout = "composite z-score"
recorded_number = 0.102


// switching to the query molecule
Read the entry CC(C)C(=C=CC[C@H](O)c1cccc(OCCO)c1)CCO and write its reported composite z-score.
-0.031

###

System: Lefty1
Assay info: Lefty1 binders on small-molecule microarrays, primary screen, biochemical, small-molecule microarray, 635/667 nm fluorescence (AID 1139)
Condition label: small-molecule microarray binding, fluorescence 635/667; higher = more signal
Quick rule: composite z-score of at least 0.8 means yes, below that means no.

[[record]]
entry_smiles = "CCc1cccc(NC(=O)O[C@H]2[C@H](OC(=O)Nc3ccccc3)[C@H](OC(=O)Nc3ccccc3)[C@@H](OC)O[C@@H]2CO)c1"
target_under_test = "Lefty1"
label = "no"

[[record]]
entry_smiles = "Cc1nc2cc(Br)ccc2c(=O)n1Cc1cccc(O)c1"
target_under_test = "Lefty1"
label = "yes"

[[record]]
entry_smiles = "CN1C(=O)[C@@H]2[C@@H](CC(COc3ccccc3)=C([C@H](O)CCc3ccccc3)[C@@H]2CO)C1=O"
target_under_test = "Lefty1"
label = "no"

[[record]]
entry_smiles = "O=c1cccc(-c2ccc(F)cc2)o1"
target_under_test = "Lefty1"
label = "no"

[[record]]
entry_smiles = "O=C1[C@@H]2[C@@H](CC(COc3ccccc3)=C3[C@@H](CCc4ccccc4)OB(O)C[C@@H]32)C(=O)N1Cc1ccccc1"
target_under_test = "Lefty1"
label = "no"

[[record]]
entry_smiles = "O=C(O)[C@@H]1C[C@@H]2C(=O)N3CCC[C@H]3C(=O)N2[C@@H]1c1cccc(OCCO)c1"
target_under_test = "Lefty1"
label = "yes"


Hi, just wondering whether COC(=O)C(CC#Cc1ccc2c(c1)[C@]1(C(=O)N2)[C@H](c2ccc(O)cc2)N2[C@H](c3ccccc3)[C@H](c3ccccc3)OC(=O)[C@H]2[C@@H]1C(=O)N1CCCCCCC1)C(=O)OC shows composite z-score of 0.8 or higher.
yes
